B1: AUP1 (parent)
chain: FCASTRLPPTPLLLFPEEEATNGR

- Variants of: B1
- Test method notes: protein stability index of a GFP-peptide fusion (GPS, HEK-293T) (PSI 1-6); higher = more stable;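 further: lentivirally expressed fusions sorted by FACS into six bins by GFP to DsRed ratio, PSI derived from sequencing read proportions per bin multiplied by bin number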
- Condition set: c terminus: a fixed tail appended
Could you please report measured protein stability index for the items listed next?
Give bare numbers.

Please look at the items below and tell me protein stability index for each one, in order.
1. N22E
2. F1S
3. N22C
4. A3V

**Result**
[3.39, 4.3, 2.32, 2.76]

Please look at the items below and tell me protein stability index for each one, in order.
1. P8M
2. S4F
3. N22F
4. C2Q
5. G23N
6. F15I
7. E18G
8. L14I

**Result**
2.57
2.54
2.18
3.58
2.97
3.23
2.54
3

Please look at the items below and tell me protein stability index for each one, in order.
1. T5G
2. F15L
3. P9D

**Result**
1: 2.7; 2: 3.44; 3: 2.74

Please look at the items below and tell me protein stability index for each one, in order.
1. N22G
2. G23I
3. T21R
4. L13C

**Result**
1. 2.16
2. 2.19
3. 2.8
4. 3.01

Please look at the items below and tell me protein stability index for each one, in order.
1. L13G
2. A3M
3. T21N

**Result**
[3.42, 2.88, 3.15]
